Taken from PubChem BioAssay (NCI).

Tested on: EKVX NSCLC
Assay: NCI-60 one-dose screen, 48 h
Conditions: 10 µM
This is part of a sample that, as a whole, favours compounds with a hit. Of some 83,000 tested, about 20% had one in any assay. The source made the active and inactive calls. How the source made its calls: active means growth percent below 10; inactive means the rest.
Permitted responses: T for active, F for inactive

molecule	assigned-category
CCn1c(SCc2ccc(C)cc2)nnc1-c1nn(-c2ccc(Cl)cc2Cl)c(-c2ccc(Cl)cc2)c1C	F
CC(=O)C1N=NCC1c1ccccc1 (stereo not given)	F
NS(=O)(=O)Oc1ccc2c(ccn2C(=O)C23CC4CC(CC(C4)C2)C3)c1	F
COc1ccc2nc3cc(Cl)ccc3c(Nc3cc(CN4CCCC4)c(O)c(CN4CCCC4)c3)c2n1	T
COc1ccc(C(=O)COc2cccc(/C=C3\Cc4ccccc4C3=O)c2)cc1	F
COc1cccc(N=Nc2cccc(OC)c2)c1	F
Cc1cc(SC#N)cc(C(C)(C)C)c1O	F
CCc1c2c(nc3ccc(OC(=O)N4CCC(N5CCCCC5)CC4)cc13)-c1cc3c(c(=O)n1C2)COC(=O)[C@]3(O)CC	F

Query block: Answer briefly: the call reported for O=C(Nc1ccc(OS(=O)(=O)c2ccccc2)cc1)C1CCCCC1 in this assay.
Result block: F

Query block: Note, next up: COc1ccc(-c2cc(-c3ccccc3)nc(SCCCC(=O)NO)n2)cc1
Result block: T

Query block: Note, next up: COc1cc2cc(Oc3ccc(NC(=O)c4cccc(C(F)(F)F)c4)cc3)c(C)nc2cc1OC
Result block: F

Query block: Note, next up: O=C1c2c(c3c4ccccc4n(CCCCCCN4CCOCC4)c3c3[nH]c4ccccc4c23)C(=O)N1O
Result block: F

Query block: Note, next up: CS(=O)(=O)c1nccc(-c2c(-c3cccc(OCc4ccccc4)c3)nc3sccn23)n1
Result block: F

Query block: Note, next up: O=C(COc1cccc(/C=C2\CSc3ccc(Cl)cc3C2=O)c1)c1ccc(Cl)cc1
Result block: F

Query block: Note, next up: COc1ccc(C2CC(c3cc(OC)c(OC)c(OC)c3)=NN2)cc1 (stereo not given)
Result block: F

Query block: Note, next up: C[C@]12CCC3c4ccc(O)cc4C[C@@H](CCCCCCCCCS(=O)CCCC(F)(F)C(F)(F)F)C3C1CC[C@@H]2O (stereo not given in full)
Result block: F
